# Target Or Test System: Ubiquitin-activating enzyme e1, putative (Leishmania donovani (strain BPK282A1)) (UniProt E9BSI1)
# Sequence (E9BSI1 as listed by the source): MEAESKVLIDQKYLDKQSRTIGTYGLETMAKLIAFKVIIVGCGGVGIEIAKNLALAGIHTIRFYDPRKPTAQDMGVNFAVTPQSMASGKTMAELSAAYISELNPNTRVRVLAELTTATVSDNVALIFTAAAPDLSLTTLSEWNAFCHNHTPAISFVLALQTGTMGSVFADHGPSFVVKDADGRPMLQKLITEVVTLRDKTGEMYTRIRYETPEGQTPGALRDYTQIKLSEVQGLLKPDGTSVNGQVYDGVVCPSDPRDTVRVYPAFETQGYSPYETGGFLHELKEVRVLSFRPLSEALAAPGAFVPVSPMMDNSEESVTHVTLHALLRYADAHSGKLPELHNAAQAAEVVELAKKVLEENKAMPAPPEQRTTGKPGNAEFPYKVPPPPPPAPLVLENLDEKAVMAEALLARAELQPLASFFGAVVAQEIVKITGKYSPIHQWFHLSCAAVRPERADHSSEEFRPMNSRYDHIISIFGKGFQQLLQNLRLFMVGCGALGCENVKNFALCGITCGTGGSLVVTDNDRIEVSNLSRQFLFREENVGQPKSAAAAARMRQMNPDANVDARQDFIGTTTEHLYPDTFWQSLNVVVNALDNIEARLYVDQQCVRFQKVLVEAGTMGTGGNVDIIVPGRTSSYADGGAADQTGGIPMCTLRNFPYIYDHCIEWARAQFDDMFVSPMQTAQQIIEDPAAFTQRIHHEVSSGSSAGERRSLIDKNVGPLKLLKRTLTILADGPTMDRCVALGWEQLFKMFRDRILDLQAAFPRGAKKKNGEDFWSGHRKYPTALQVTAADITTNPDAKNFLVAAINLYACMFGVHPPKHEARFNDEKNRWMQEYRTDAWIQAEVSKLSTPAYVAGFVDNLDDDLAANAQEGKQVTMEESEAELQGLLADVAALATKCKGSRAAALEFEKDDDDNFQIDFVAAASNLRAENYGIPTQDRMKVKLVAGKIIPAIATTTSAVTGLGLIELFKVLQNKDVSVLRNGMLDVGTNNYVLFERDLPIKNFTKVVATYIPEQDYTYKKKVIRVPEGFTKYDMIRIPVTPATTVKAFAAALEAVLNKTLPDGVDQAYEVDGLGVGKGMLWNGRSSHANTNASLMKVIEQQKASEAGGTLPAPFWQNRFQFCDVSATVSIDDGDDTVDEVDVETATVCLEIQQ
# Method: Leishmania donovani Ubiquitin Activating Enzyme (LdE1)
# Type: functional
# Design: scale not given: direction of the effect not stated beside the values
# Condition Parameters: 30 µM
Results with a measured potency or affinity are listed apart.
Outcome Measure: Percent Effect (%)
Respond numerically; units are % and should not be typed.

Worked cases, answers included:
Cc1noc(C)c1CN1CC[C@H]2C[C@@H](c3nccs3)O[C@@H]2C1 :: 5.41
CCn1ccnc1CN1CCCN(C(=O)Cc2ccc(C)nc2)CC1 :: 5.2
CC(C)CN1C[C@H]2C[C@H](C(=O)Nc3cccnc3)[C@@H](C1)O2 :: 0

Next, consider the following compound.
For the compound shown here, "Cc1ccc(CN2CCC3(CC2)C(=O)N(C)c2ccccc23)s1" , give the reported Percent Effect.
8.11

###

Listed compounds paired with reported Percent Effect
# Target Or Test System: Aspartate--tRNA(Asp/Asn) ligase (Mycobacterium tuberculosis (strain ATCC 25618 / H37Rv)); also: in the data most compounds retested in dose-response had high values
# Method: Assay for Asp RNA synthetase-1 from Mycobacterium tuberculosis
# Assay type: functional
# Set-up: scale not given: direction of the effect not stated beside the values
# Condition Parameters: 30 µM
Respond numerically; units are % and should not be typed.

Worked cases, answers included:
CCNc1cc2c(nn1)CCN(C(=O)c1ccc(NC3CC3)nc1)C2 :: -0.723
Cc1csc(N2CCN(C(=O)Cc3ccsc3)CC2)n1 :: 6.55
CC(C(=O)N1CCc2ccccc2C1)n1cc(Br)cn1 (centres undefined) :: 2.59
CCc1cccc(NS(=O)(=O)c2cc3c(c(C(=O)O)c2)OCCO3)c1 :: -2.26
O=C1CC2(CCN(CC3CC3)C2)CN1c1ccc2c(c1)OCO2 (centres undefined) :: 14.6
CC(Cn1cccn1)NC(=O)Nc1nnc(C2CC2)s1 (centres undefined) :: -7.13
CCc1nnc2n1CCN(Cc1nc(-c3ccoc3)no1)C2 :: -5.61
O=C(Cn1ccc2c(Cl)cccc21)N[C@@H](C(=O)O)c1ccccc1 :: -6.24

Lab request: please report Percent Effect under test system Aspartate--tRNA(Asp/Asn) ligase (Mycobacterium tuberculosis (strain ATCC 25618 / H37Rv)) for "O=C(CCc1nc2cccnc2[nH]1)Nc1cccnc1"
-1.77

Lab request: please report Percent Effect under test system Aspartate--tRNA(Asp/Asn) ligase (Mycobacterium tuberculosis (strain ATCC 25618 / H37Rv)) for "Cc1ccc(C(=O)N(C)Cc2cscn2)c(=O)[nH]1"
0.749

Lab request: please report Percent Effect under test system Aspartate--tRNA(Asp/Asn) ligase (Mycobacterium tuberculosis (strain ATCC 25618 / H37Rv)) for "Cc1cc(CN(C)Cc2cc3c(cc2OC(F)F)OCO3)on1"
4.16

Lab request: please report Percent Effect under test system Aspartate--tRNA(Asp/Asn) ligase (Mycobacterium tuberculosis (strain ATCC 25618 / H37Rv)) for "c1csc(CN2CCn3c(Cn4cncn4)cnc3C2)n1"
-1.25

Lab request: please report Percent Effect under test system Aspartate--tRNA(Asp/Asn) ligase (Mycobacterium tuberculosis (strain ATCC 25618 / H37Rv)) for "O=C(Nc1ccc(N2CCCC2)nc1)N1CCc2sccc2C1"
0.155

Lab request: please report Percent Effect under test system Aspartate--tRNA(Asp/Asn) ligase (Mycobacterium tuberculosis (strain ATCC 25618 / H37Rv)) for "Cc1ccc(=O)n(CC2(O)CCN(Cc3cc(C)c(O)c(C)c3)CC2)n1"
-3.32

Lab request: please report Percent Effect under test system Aspartate--tRNA(Asp/Asn) ligase (Mycobacterium tuberculosis (strain ATCC 25618 / H37Rv)) for "Cc1ccc(C(=O)N2CCN(C(=O)Nc3ccccn3)CC2)o1"
4.09

Lab request: please report Percent Effect under test system Aspartate--tRNA(Asp/Asn) ligase (Mycobacterium tuberculosis (strain ATCC 25618 / H37Rv)) for CN(C(=O)NCCCN1CCCC1)C1CCN(c2ccccc2)C1=O (centres undefined); also: in the data most compounds retested in dose-response had high values
-0.189

Lab request: please report Percent Effect under test system Aspartate--tRNA(Asp/Asn) ligase (Mycobacterium tuberculosis (strain ATCC 25618 / H37Rv)) for "NC(=O)C1CCN(C(=O)c2cccc(OCc3cscn3)c2)CC1"
-1.48

Lab request: please report Percent Effect under test system Aspartate--tRNA(Asp/Asn) ligase (Mycobacterium tuberculosis (strain ATCC 25618 / H37Rv)) for Cc1nc(CN2CCC(N(C)Cc3noc(C(C)C)n3)C2)cs1 (centres undefined); also: in the data most compounds retested in dose-response had high values
8.39

Lab request: please report Percent Effect under test system Aspartate--tRNA(Asp/Asn) ligase (Mycobacterium tuberculosis (strain ATCC 25618 / H37Rv)) for "O=C(c1ccc2c(c1)COC2)N1CCN(CC2CC2)CC1"
-0.514

Lab request: please report Percent Effect under test system Aspartate--tRNA(Asp/Asn) ligase (Mycobacterium tuberculosis (strain ATCC 25618 / H37Rv)) for CCc1nc(CN2CCCC(NCc3nc4cccnc4[nH]3)C2)no1 (centres undefined); also: in the data most compounds retested in dose-response had high values
-3

Lab request: please report Percent Effect under test system Aspartate--tRNA(Asp/Asn) ligase (Mycobacterium tuberculosis (strain ATCC 25618 / H37Rv)) for "CC(=O)N1CCC2(CC1)CC[C@@]1(C(=O)N(C)C)CN(S(C)(=O)=O)C[C@@H]21"
-1.99

Lab request: please report Percent Effect under test system Aspartate--tRNA(Asp/Asn) ligase (Mycobacterium tuberculosis (strain ATCC 25618 / H37Rv)) for "O=C(c1ccccn1)N1C[C@@H]2CC[C@H](C1)N(C(=O)CCc1ccsc1)C2"
0.446

Lab request: please report Percent Effect under test system Aspartate--tRNA(Asp/Asn) ligase (Mycobacterium tuberculosis (strain ATCC 25618 / H37Rv)) for "Cc1ccc(S(=O)(=O)NC2CC2)cc1C"
-2.59

Lab request: please report Percent Effect under test system Aspartate--tRNA(Asp/Asn) ligase (Mycobacterium tuberculosis (strain ATCC 25618 / H37Rv)) for "CCn1c(C(=O)N2CCN(C(=O)NC(C)C)CC2)cc2ccccc21"
2.76

###

# Target Or Test System: Shiga toxin 2 (Escherichia coli O157:H7) (UniProt P09385+P09386)
# Method: E. coli 0.157:H7 Shiga Toxin SOP - stx2 screening assay
# Format: functional
# Set-up: scale not given: direction of the effect not stated beside the values
# Condition Parameters: 30 µM
Listed compounds paired with reported Percent Effect
Respond numerically; units are % and should not be typed.

CNC(=O)C1(CCCc2ccncc2)CCCN1 (centres undefined) :: 1.85
CC(C)c1nccc([C@H]2C[C@@H]3CCN(Cc4ccco4)C[C@H]3O2)n1 :: 5.36
CC(=O)N1CCCN(C(=O)NCc2ccccn2)CC1 :: 16.9
O=S(=O)(CCNCc1cccc2c1OCCO2)N1CCOCC1 :: -39
c1csc(CN2C[C@@H]3OCCN(CC4CCCO4)[C@@H]3C2)c1 (some centres undefined) :: 7.71
COc1cccc(CNCc2nnc3n2CC(C(F)(F)F)CC3)c1 (centres undefined) :: -19.1
CC(C)N1CCn2c(nc3cc(C(N)=O)ccc32)C1 :: -34
Cc1nc(CN2C[C@@H]3OCCN(c4ncc(F)cn4)[C@@H]3C2)cs1 :: 2.24
COc1ccc2nnc(CCCC(=O)NCc3cccn3C)n2n1 :: -44.7
Cc1c[nH]cc1C(=O)N1CCN(CCc2cccs2)CC1 :: -33.2

For the compound shown here, "CCc1cc(NCCNc2cccnc2)n2nccc2n1" , give the reported Percent Effect.
-5.46

For the compound shown here, CCc1nc(C2CCCN2C(=O)CCn2cncn2)no1 (centres undefined) , give the reported Percent Effect.
5.08

For the compound shown here, CN1CC(c2ccccc2)CC12CCN(C(=O)c1cncc(Cl)c1)CC2 (centres undefined) , give the reported Percent Effect.
12.5

###

# Target Or Test System: Shiga toxin 2 (Escherichia coli O157:H7) (UniProt P09385+P09386)
# Method: E. coli 0.157:H7 Shiga Toxin SOP - stx2 screening assay
# Type: functional
# Parameters: scale not given: direction of the effect not stated beside the values
# Condition Parameters: 30 µM
Listed compounds paired with reported Percent Effect
Respond numerically; units are % and should not be typed.

COCC(=O)N1CCC(c2cccc(Cc3ccc(F)cc3)n2)CC1 :: -10.6
Brc1cc2c(cc1CN1CCC(N3CCCCC3)CC1)OCCO2 :: -51.2
Cc1nc2ccccn2c1CN(Cc1cccnc1)CC1CCCO1 (stereo unspecified) :: -8.1
COc1cc(C(=O)N2CCCS2(=O)=O)cc(Cl)c1OC :: -4.54
O=C(NCc1ccco1)[C@H]1C[C@H]2OCC[C@H]2N(C(=O)c2ccncc2)C1 :: 8.77
CS(=O)(=O)NC1CCN(C(=O)NCCc2ccccc2F)CC1 :: -19.2
CC(NC(=O)C1=NN(C)C(=O)CC1)c1ccc(F)cc1F (stereo unspecified) :: -6.55
CC(=O)NCCc1ccc(C(=O)N2CCCC2c2cnn(C)c2)cc1 (stereo unspecified) :: 21.3

For the compound shown here, CC(C)C(C(=O)N1CCC(Nc2cccnn2)CC1)n1cncn1 (stereo unspecified) , give the reported Percent Effect.
12.4

For the compound shown here, "O=C(CC1CCCC1)NCCn1ccc(-c2ccncc2)n1" , give the reported Percent Effect.
3.58

For the compound shown here, CC(=O)N1CC(=O)N(c2cnn(C)c2)CC12CCN(Cc1ccoc1)C2 (stereo unspecified) , give the reported Percent Effect.
0.489

Just for reference, ChEMBL document CHEMBL3988442 is where these values come from.
